measurement-protocol: Chassis-air partition coefficient of accord components
Type: physicochemical
# if value of logK, APDO Soft Solid (log chassis-air partition coefficient) reaches 7, tag t; if it stays below, tag f

Query: Confirm if logK, APDO Soft Solid (log chassis-air partition coefficient) reported for the compound O=C1CCCCCCCCCCCC(=O)OCCO1 [Musk T ®, ethylene brassylate] is 7 or above.
Response: t

Query: Same again, this time with CC(=O)CCc1ccc(O)cc1 [PARA HYDROXY PHENYL BUTANONE]
Response: f

Query: Same again, this time with O=C1CCCCCCCCCCCCCCO1 [EXALTOLIDE, 16-oxacyclohexadecan-1-one]
Response: f

Query: Same again, this time with O=C1CCCCCCCCC/C=C/CCCO1 [Habanolide, (12E)-1-oxacyclohexadec-12-en-2-one]
Response: f

----------
measurement-protocol: Chassis-air partition coefficient of accord components
Format: physicochemical
study-conditions: BC-162 shampoo chassis
logK, BC162 (log chassis-air partition coefficient) values, listed per item

Query: Please report the recorded logK, BC162 (log chassis-air partition coefficient) for O=C1CCCCCCCCC/C=C/CCCO1 [Habanolide, (12E)-1-oxacyclohexadec-12-en-2-one] .
Response: 5.505

----------
Cortisol Data (change before vs after stress test) values, listed per item
System: salivary cortisol
measurement-protocol: Salivary cortisol before vs after timed ten minute mathematical/word stress test, fragrance inhaled
Type: in vivo, human
study-conditions: Table 6; about 10-15 panelists; DPG control −10.9%

Sample records with Cortisol Data (change before vs after stress test):
# molecule, data-value
records = [
    ("CC1CCCCCCCCCCCCC(=O)C1 [L-Muscone]", "+25.6%"),
    ("O=C1CCCCC=CCCCCCCCCCO1 [Ambrettolide, 17-oxacycloheptadec-6-en-1-one]", "−11.25%"),
    ("CC1=CCC(C/C=C(\\C)CO)C1(C)C (stereo not shown) [Hindinol]", "−25.0%"),
    ("O=C1CCCCCCCCC/C=C/CCCO1 [Habanolide, (12E)-1-oxacyclohexadec-12-en-2-one]", "−20.6%"),
    ("CC(=O)OC(C)C1CCCC(C)(C)C1 (stereo not shown) [Rosamusk, 1-(3,3-dimethylcyclohexyl)ethyl acetate]", "+6.68%"),
]

Query: API: value(readout= Cortisol Data (change before vs after stress test), system= salivary cortisol, query= CC(=O)C(C)CC[C@H]1CCC(C)C1(C)C (stereo partly shown) )
Response: −16.5%

Query: Same again, this time with CC(=O)c1cc2c(cc1C)C(C)(C)C(C)C2(C)C (stereo not shown) [Phantolide]
Response: −12.3%

----------
measurement-protocol: Chassis-air partition coefficient of accord components
Format: physicochemical
study-conditions: BC-162 shampoo chassis
measured-attribute: logK, BC162 (log chassis-air partition coefficient)
A bare number is all that is needed in reply.

# compound, data-value
data = [
    ("O=C1CCCCCCCCCCCCCCO1 [EXALTOLIDE, 16-oxacyclohexadecan-1-one]", 5.356),
]

Query: Please report the recorded logK, BC162 (log chassis-air partition coefficient) for CC(=O)CCc1ccc(O)cc1 [PARA HYDROXY PHENYL BUTANONE] .
Response: 7.809

Query: Same again, this time with O=C1CCCCCCCCCOCCCCCO1 [MUSK RI, 11-Oxahexadecan-16-olide]
Response: 5.780

Query: Same again, this time with O=C1CCCCCCCCCCCC(=O)OCCO1 [Musk T ®, ethylene brassylate]
Response: 6.345
